- assayed-target: DP-IV (Sus scrofa (Pig), UniProt P22411)
- Sequence (P22411 whole entry): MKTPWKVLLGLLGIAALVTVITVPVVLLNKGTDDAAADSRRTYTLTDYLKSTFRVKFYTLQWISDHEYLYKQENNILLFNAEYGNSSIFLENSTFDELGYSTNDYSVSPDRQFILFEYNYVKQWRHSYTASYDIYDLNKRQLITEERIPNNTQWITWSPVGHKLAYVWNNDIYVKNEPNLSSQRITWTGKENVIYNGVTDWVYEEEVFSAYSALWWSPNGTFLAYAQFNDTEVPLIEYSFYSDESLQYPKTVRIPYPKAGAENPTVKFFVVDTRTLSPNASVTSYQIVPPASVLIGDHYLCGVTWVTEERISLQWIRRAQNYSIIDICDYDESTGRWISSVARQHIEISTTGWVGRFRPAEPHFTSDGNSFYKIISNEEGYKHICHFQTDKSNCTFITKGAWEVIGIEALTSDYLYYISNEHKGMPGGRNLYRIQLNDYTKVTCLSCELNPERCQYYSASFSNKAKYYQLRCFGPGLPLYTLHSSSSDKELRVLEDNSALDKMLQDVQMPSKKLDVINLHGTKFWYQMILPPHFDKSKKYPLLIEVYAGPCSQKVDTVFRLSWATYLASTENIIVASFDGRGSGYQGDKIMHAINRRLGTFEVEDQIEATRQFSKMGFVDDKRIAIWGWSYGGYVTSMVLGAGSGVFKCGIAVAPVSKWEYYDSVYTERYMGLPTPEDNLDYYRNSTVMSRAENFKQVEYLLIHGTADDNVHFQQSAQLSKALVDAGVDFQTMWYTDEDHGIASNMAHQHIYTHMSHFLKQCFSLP
- protocol-description: DPP IV inhibition: thioxamide v. oxoamide
- Type: biochemical, porcine
- settings: pH 8.0; read-out: IC50 (pH 8.0)
pIC50: −log10 of the molar value.
reported-property: pIC50

# example entries with known answers
>>> value_measured("N[C@H](C(=S)N1CCC[C@H]1B(O)O)C1CCCCC1 [Chg-boroPro Thioxamide]")
5.05
>>> value_measured("N=C(N)NCCC[C@H](N)C(=O)N1CCC[C@H]1B(O)O [Arg-boroPro, reference compound]")
5.15
>>> value_measured("N[C@@H](CCC(=O)O)C(=S)N1CCC[C@H]1B(O)O [Glu-boroPro Thioxamide]")
6.05

[a] O=C(CNC12CC3CC(CC(O)(C3)C1)C2)N1CCC[C@H]1B(O)O [NVP-LAF237 analogue, reference compound]
[b] OB(O)[C@@H]1CCCN1C(=S)CNC12CC3CC(CC(O)(C3)C1)C2 [NVP-LAF237 analogue Thioxamide]
Smaller pIC50 value? Options are a and b Could you answer with the label of the item you picked?
b
(b: 4.40, a: 7.14)

meta.source: patent US8933056B2
